# System: KM12
# methodNotes: NCI tumour cell line growth inhibition, 48 h
Active and inactive are the calls of the source. No stated cut-off is given here; in the data, active = GI50 up to about 1.1 µM and inactive = higher.
resultType: GI50

{"molecule": "C[N+](C)(C)CC(=O)N/N=C(/CC1OC(=O)c2ccccc21)c1ccccc1O (stereo unspecified)", "GI50": "26.7 µM (inactive)"}
{"molecule": "CCOC(=O)/C=C1\\c2ccccc2C(=O)N1CC(=O)OCC", "GI50": "> 100 µM (inactive)"}
{"molecule": "COC(=O)/C=C(\\C(=O)OC)C1C(=O)Oc2c(C)c(=O)c3ccccc3n21 (stereo unspecified)", "GI50": "> 100 µM (inactive)"}
{"molecule": "O=NN(CCCl)C(=O)NC1CCC(CC2CCC(NC(=O)N(CCCl)N=O)CC2)CC1 (stereo unspecified)", "GI50": "> 73.3 µM (inactive)"}
{"molecule": "CN(C)c1ccc(/C=N/n2c(-c3ccccc3)nc3ccccc3c2=O)cc1", "GI50": "24.8 µM (inactive)"}

From here, focus on the item given below.
Please report the recorded GI50 for CSC(SC)=C1CC(=O)Nc2ccccc2C1=O .
> 100 µM (inactive)

----------
# Tested on: UACC-62
# methodNotes: NCI tumour cell line growth inhibition, 48 h
Activity calls are given as the source filed them. No stated cut-off is given here; in the data, active = GI50 up to about 1.1 µM and inactive = higher.
Hi! Could you answer with just one of these? TRUE for active, FALSE for inactive

Field: outcome | Entry: COc1ccc(C2=NNC(c3cc4cc(Br)ccc4nc3Cl)C2)cc1 (stereo unspecified)
FALSE

Outcome? CNCCCn1c2ccccc2c2c3c(c(-c4ccsc4)cc21)C(=O)NC3=O
FALSE

Kindly provide the recorded test outcome for the following molecule: O=C1CC(c2ccccc2)NCN1 (stereo unspecified)
FALSE

Recorded test call requested for COC1=CC(=O)C2=C(C1=O)[C@H]1CC[C@]3(C)[C@@H](O)CC[C@H]3[C@@H]1CC2
FALSE

How did this test come out for Cc1nc2sccn2c1/C=C1/C(=O)Nc2cccc(Cl)c21 ?
FALSE

Hi, do you know how C/C=C/CP(=O)(c1ccccc1)c1ccccc1 came out in this test?
FALSE

Please state the recorded outcome for this molecule: C[N+](C)(C)CC(=O)N/N=C(/CC1OC(=O)c2ccccc21)c1ccccc1O (stereo unspecified)
FALSE

Short answer needed: outcome of this test for Cc1cccc(/N=C2\NC(=O)C(CC(=O)Nc3ccc(C)cc3C)S2)c1 (stereo unspecified) ?
FALSE

Record request — test call for COc1ccc(C2=CC(c3ccccc3)n3nnnc3N2)cc1 (stereo unspecified)
FALSE

Test call, this molecule: COc1c(O)c2c3c(cc(C)cc3c1C(C)C)OC2
FALSE

Per the records of this test, what outcome belongs to O=C(O)c1ccccc1C(=O)Nn1cnnc1 ?
FALSE

Call for entry CSC(SC)=C1CC(=O)Nc2ccccc2C1=O :
FALSE

Write down the call the test reported for this molecule. Item: O=C(O)c1ccccc1/C=C1/Nc2ccccc2C1=O
FALSE

What was the test verdict on COC(=O)c1c(-c2ccc(Cl)cc2)cc2c3ccccc3n(C)c2c1C(=O)OC ?
FALSE

----------
# Test system: U-251
# methodNotes: NCI tumour cell line growth inhibition, 48 h
The source made the active and inactive calls. Cut-off read from the data, not from the text of the source: active = GI50 up to about 1.1 µM and inactive = higher.
Log the outcome using a class from active, inactive

{"compound": "OCCCCCNc1c2ccccc2nc2ccccc12", "className": "inactive"}
{"compound": "Oc1c(Br)c(-c2ccccc2)nc2ccccc12", "className": "inactive"}
{"compound": "O=P1(Oc2ccc(Cl)cc2Cl)Oc2ccc3ccccc3c2-c2c(ccc3ccccc23)O1", "className": "inactive"}
{"compound": "O=C1OC2(c3ccccc31)c1cc(I)c(O)c(I)c1Oc1c2cc(I)c(O)c1I [ERYTHROSINE]", "className": "inactive"}
{"compound": "COC(=O)C1Cc2c([nH]c3ccccc23)-c2[nH]c3ccccc3c2CC(NC(C)=O)C(=O)NCC(=O)NCC(=O)N1 (stereo not drawn)", "className": "inactive"}

Tell me the assay call for O=c1cc(N2CCCC2)[nH]c(=O)n1-c1cccc(Cl)c1 please.
inactive

Dear colleague, could you share the recorded outcome for CN(C)CCNC(=O)c1cccc2c1Oc1cccc([N+](=O)[O-])c1O2 when you have a moment?
inactive

Please let me know the test result on file for CC1=C2C(O)C(C(C)CO)C(O)CC2(C)C(O)CC1 (stereo not drawn) .
inactive

Identify the outcome logged in this assay for the compound shown: C=CCC1(O)CC(n2cc(C)c(=O)[nH]c2=O)OC1CO[Si](C)(C)C(C)(C)C (stereo not drawn)
inactive

What was the test verdict on CC(=O)OCC1OC(Nc2nc(O)n(C)c(=O)c2-c2csc(N)n2)C(OC(C)=O)C(OC(C)=O)C1OC(C)=O (stereo not drawn) ?
inactive

Which outcome was entered for the compound O=C1c2ccccc2-c2c1c1ccccc1c(=O)n2CCO in this test?
inactive

Outcome? CC1=C(C(=O)N[C@@H](Cc2ccccc2)C(=O)O)N2C(=O)[C@@H](NC(=O)[C@@H](N)CC(C)C)[C@H]2SC1
inactive

What was the test verdict on CCOC(=O)c1cc(C2CCN(Cc3ccccc3)C2=O)c(C(=O)/C=C(/C)N)[nH]1 (stereo not drawn) ?
inactive

----------
# Tested on: MCF7
# methodNotes: NCI tumour cell line growth inhibition, 48 h
The source made the active and inactive calls. No stated cut-off is given here; in the data, active = GI50 up to about 1.1 µM and inactive = higher. Where a SMILES comes first, the peptide text is derived from it. [ ]: non-standard residue; d: D form. Aoe = N[C@@H](CCCCCC(=O)[C@@H]1CO1)C(=O)O
The categories you may choose from are active, inactive

Below are worked cases with known answers.
{"compound": "C=CCc1cccc2cc(C(=O)Nc3ccccn3)c(=N)oc12", "className": "inactive"}
{"compound": "O=C1N[C@@H](Cc2ccccc2)C(=O)N2CCC[C@@H]2C(=O)N[C@@H](CCCCCC(=O)[C@@H]2CO2)C(=O)N[C@H]1Cc1ccccc1 [TRAPOXIN B] (cyclo(FF[dP][Aoe]))", "className": "active"}
{"compound": "CC(=O)OC1O[C@@H](C(C)(C)O)CC[C@@H]1[C@H]1CC[C@@]2(C)C3=C(CC[C@]12C)[C@@]1(C)C[C@@H](OC(=O)CC(C)(O)CC(=O)O)[C@H](OC(C)=O)C(C)(C)C1CC3 (stereo partly drawn)", "className": "inactive"}
{"compound": "CNCCCn1c2ccccc2c2c3c(c(-c4ccsc4)cc21)C(=O)NC3=O", "className": "active"}
{"compound": "O=[N+]([O-])c1ncc(N(CCO)CCO)s1", "className": "inactive"}
{"compound": "O=S1(=O)N=C(SCc2ccccc2)N(c2ccccc2)c2ccncc21", "className": "inactive"}

Short answer needed: outcome of this test for O=P1(Oc2ccc(Cl)cc2Cl)Oc2ccc3ccccc3c2-c2c(ccc3ccccc23)O1 ?
inactive

Could you please tell me the result logged for CN(C)CCNC(=O)c1cccc2c1Oc1cccc([N+](=O)[O-])c1O2 in this assay?
inactive

----------
# Test system: KM12
# methodNotes: NCI tumour cell line growth inhibition, 48 h
Activity calls are given as the source filed them. Cut-off read from the data, not from the text of the source: active = GI50 up to about 1.1 µM and inactive = higher.
resultType: GI50

Take a look at these entries with their results.
{"compound": "Cc1c(-c2ccccc2)c(C#N)c2nnn(C)c(=O)n12", "GI50": "> 100 µM (inactive)"}
{"compound": "CC(=O)OCC1OC(n2c(C)c(C)c(C)c(C#N)c2=S)C(OC(C)=O)C(OC(C)=O)C1OC(C)=O (stereo unspecified)", "GI50": "> 100 µM (inactive)"}
{"compound": "Cc1ccc(S(=O)(=O)NC(=O)NS(=O)(=O)O)cc1", "GI50": "> 100 µM (inactive)"}

Which value of GI50 has been reported for C=CCN1C[C@H](C)N([C@H](c2ccc(C(=O)NC(CC)CC)cc2)c2cccc(OC)c2)C[C@H]1C in the records?
37.7 µM (inactive)

// query GI50 value for entry O=C(CSC1=NCCN1)c1ccccc1
> 100 µM (inactive)

I am curious: what GI50 value has been reported for c1ccc2c(c1)SCCC2NC1=NCCO1 (stereo unspecified) ?
> 100 µM (inactive)

----------
Quick reference: GI50 of the listed items.
# System: ACHN
# methodNotes: NCI tumour cell line growth inhibition, 48 h
Calls of active or inactive are those of the source. Cut-off read from the data, not from the text of the source: active = GI50 up to about 1.1 µM and inactive = higher.

Known GI50 results, listed for orientation:
{"compound": "COC1=CC(=O)C2=C(C1=O)[C@H]1CC[C@]3(C)[C@@H](O)CC[C@H]3[C@@H]1CC2", "targetSystem": "ACHN", "GI50": "18 µM (inactive)"}
{"compound": "CN(C)CCN1CCc2c([nH]c3ccccc23)C1c1cccnc1 (stereo unspecified)", "targetSystem": "ACHN", "GI50": "23 µM (inactive)"}
{"compound": "CCOC(=O)c1c(-c2ccc(O)c(OC)c2)c(C#N)c(=S)n(C2OC(CO)C(O)C(O)C2O)c1-c1ccccc1 (stereo unspecified)", "targetSystem": "ACHN", "GI50": "> 100 µM (inactive)"}
{"compound": "O=C1OC(CC(=O)c2ccc(Cl)c(Cl)c2)C(Cl)=C1Cl (stereo unspecified)", "targetSystem": "ACHN", "GI50": "> 100 µM (inactive)"}
{"compound": "CCN(CCC#N)C(=O)Nc1ccccc1", "targetSystem": "ACHN", "GI50": "> 100 µM (inactive)"}
{"compound": "O=C(CCc1cc(O)cc(O)c1)NCCc1cc(O)cc(O)c1", "targetSystem": "ACHN", "GI50": "> 100 µM (inactive)"}
{"compound": "Cc1cc(-c2nc3cc(F)c(F)cc3s2)ccc1N", "targetSystem": "ACHN", "GI50": "> 79.1 µM (inactive)"}
{"compound": "O=C1CCC2(CC1CC(Sc1ccccc1)Sc1ccccc1)OCCO2 (stereo unspecified)", "targetSystem": "ACHN", "GI50": "38.6 µM (inactive)"}

// returns reported GI50 for input N=C(N)NCCCC(NCc1c2ccccc2[n+]([O-])c2ccccc12)C(=O)O (stereo unspecified)
42.7 µM (inactive)

Item under review: CC(C)=CCC/C(C)=C/Cc1c(O)ccc2c1[nH]c1cc(O)c(C)cc12 . Reported GI50?
8.85 µM (inactive)

Fill in the blank: the reported GI50 of CC(=O)CCC[C@H](C)[C@@H](O)[C@@H]1O[C@H]([C@@]2(C)CCC(=O)O2)C[C@H]1C(=O)O is ____.
> 100 µM (inactive)

// query GI50 value for entry CCOC(=O)C1(C(=O)OCC)COS(=O)OC1
32.6 µM (inactive)

Reported GI50, compound C/C(=N\Nc1ncnc2ccccc12)c1ccccn1 : ____
0.0169 µM (active)

Query (compound): O=C(N/C(=C\c1ccc(/C=C(\NC(=O)c2ccccc2)c2nc3cc(Cl)ccc3[nH]2)cc1)c1nc2cc(Cl)ccc2[nH]1)c1ccccc1 ; field requested: GI50
26.9 µM (inactive)

Item COC(=O)c1c(-c2ccc(Cl)cc2)cc2c3ccccc3n(C)c2c1C(=O)OC has what recorded GI50?
> 100 µM (inactive)

What value of GI50 has been reported for the following compound? N=C(N)N/N=C(\c1ccc(Cl)cc1)C1CC1
21.8 µM (inactive)

// query GI50 value for entry Cc1ccc(NC(=O)C2C(=O)N(c3ccc(C)c(C)c3)C(=O)C2N=N)cc1C (stereo unspecified)
90.4 µM (inactive)

Given O=C(O)c1c(-c2cccc3ccccc23)sc(-c2cccc3ccccc23)c1C(=O)O , state its recorded GI50.
> 100 µM (inactive)

Can you look up the measured GI50 of Cc1nc(C(=O)O)c2ccccc2n1 for me?
> 100 µM (inactive)

Requested read-out: GI50. Entry: Nn1c(-c2ccccc2Cl)nc2ccccc2c1=O
> 100 µM (inactive)
